Target: microsomal h-COX2 (Homo sapiens, UniProt P35354)
Construct: made in house; host or cells: baculovirus infected SF9 cells (microsomal preparation)
Sequence (P35354 18-604): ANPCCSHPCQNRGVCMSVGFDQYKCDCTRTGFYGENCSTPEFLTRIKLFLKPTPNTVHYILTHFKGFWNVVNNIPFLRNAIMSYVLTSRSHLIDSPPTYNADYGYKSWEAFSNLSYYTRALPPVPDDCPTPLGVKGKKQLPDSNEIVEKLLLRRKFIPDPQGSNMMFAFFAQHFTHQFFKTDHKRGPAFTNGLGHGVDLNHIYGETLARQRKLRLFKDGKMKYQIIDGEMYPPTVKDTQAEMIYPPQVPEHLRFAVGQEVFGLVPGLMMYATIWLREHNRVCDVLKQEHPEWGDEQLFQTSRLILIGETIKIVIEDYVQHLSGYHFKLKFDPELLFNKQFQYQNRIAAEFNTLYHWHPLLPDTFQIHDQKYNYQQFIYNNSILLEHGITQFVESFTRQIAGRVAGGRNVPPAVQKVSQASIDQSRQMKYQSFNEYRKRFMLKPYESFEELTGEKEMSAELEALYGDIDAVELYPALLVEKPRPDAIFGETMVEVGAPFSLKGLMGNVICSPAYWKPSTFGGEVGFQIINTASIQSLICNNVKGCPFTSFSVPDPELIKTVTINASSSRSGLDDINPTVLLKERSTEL
Assay: Microsomal assay, COX-2 (microsomal preparation from baculovirus infected SF9 cells)
Type: biochemical
Conditions: microsomal assay; PGE2 by EIA; read-out: COX-2: IC50
metric-name: IC50

CS(=O)(=O)c1ccc(-c2cc(C(F)(F)F)nc(Oc3cncc(Cl)c3)n2)cc1 [Example 1.7] ... < 0.01 µM

The reported value for Cc1ccc(Oc2nc(-c3ccc(S(C)(=O)=O)cc3)cc(C(F)(F)F)n2)cc1 [Example 1.6] in terms of IC50 is < 0.01 µM
